Entries and their measured IC50 follow.
Test: Inhibition of HCV genotype 1b C-terminal polyhistidine-tagged NS5B Cdelta21 RdRp expressed in Escherichia coli using DCoH75 as template assessed as incorporation of [33P]-CTP in polynucleotide sequence after 2 hrs by scintillation counting analysis
Design: species or system Hepatitis C virus subtype 1b
# unit: nM | format: bare number

INSERT INTO measurements (given_smiles, unit_spec, obs_value) VALUES
  ('Nc1nc2cc(F)c(Cn3c(C(=O)O)c(-c4ccc[nH]c4=O)c4c5occc5c(F)cc43)cc2c(=O)[nH]1', 'nM', 7),
  ('Cc1nc2cc(F)c(Cn3c(C(=O)O)c(-c4ccc[nH]c4=O)c4c5occc5c(F)cc43)cc2c(=O)[nH]1', 'nM', 4);

Memo: CCOC(=O)c1c(-c2ccc[nH]c2=O)c2c3occc3c(F)cc2n1Cc1cc2c(=O)n(COC(=O)C(C)(C)C)cnc2cc1F , reported IC50: 400

Memo: O=C(O)c1c(-c2ccc[nH]c2=O)c2c3occc3c(F)cc2n1Cc1cc2c(=O)[nH]c(=O)[nH]c2cc1F , reported IC50: 4

Memo: CC(C)(C)C(=O)OCn1cccc(-c2c(C(=O)O)n(Cc3cc4c(=O)[nH]cnc4cc3F)c3cc(F)c4ccoc4c23)c1=O , reported IC50: 51

Memo: CN(C)CCOC(=O)c1c(-c2ccc[nH]c2=O)c2c3occc3c(F)cc2n1Cc1cc2c(=O)[nH]cnc2cc1F.Cl , reported IC50: 150

Memo: O=C(O)c1c(-c2ccc[nH]c2=O)c2c3occc3c(F)cc2n1Cc1cc2[nH]c(=O)oc2cc1F , reported IC50: 2000

Memo: Cc1cc2c(-c3ccc[nH]c3=O)c(C(=O)NS(=O)(=O)C3CC3)n(Cc3cc(C(N)=O)ccc3F)c2cc1F , reported IC50: 4

====

Assay: Clearance in iv dosed monkey
Type: ADME, organism-based, Macaca mulatta
Details: rhesus monkey, in vivo
Readout type: clearance (mL/min/kg)
# unit: mL/min/kg | format: bare number

Memo: O=C(O)c1c(-c2ccc[nH]c2=O)c2c3occc3c(F)cc2n1Cc1cc2c(=O)[nH]cnc2cc1F , reported clearance: 0.6

====

Experiment: AUC (0 to 6 hrs) in rat at 10 mg/kg, po
Format: ADME, organism-based
Set-up: time < 6 hr, dose 10 mg/kg, route oral
Conditions: plasma
Entries and their measured AUC(0-t) at 6 h follow.
# unit: µM·h | format: bare number

INSERT INTO results (given_smiles, obs_value) VALUES
  ('CC(=O)c1ccc(F)c(Cn2c(C(=O)O)c(-c3ccc[nH]c3=O)c3c4occc4c(F)cc32)c1', 8.8);

As a next step, examine the compound that follows.
Memo: O=C(O)c1c(-c2ccc[nH]c2=O)c2c3occc3c(F)cc2n1Cc1cc2c(=O)[nH]c(=O)[nH]c2cc1F , reported AUC(0-t) at 6 h: 8.3

====

Experiment: Inhibition of HCV genotype 1b C-terminal polyhistidine-tagged NS5B Cdelta21 RdRp expressed in Escherichia coli using DCoH75 as template assessed as incorporation of [33P]-CTP in polynucleotide sequence after 2 hrs by scintillation counting analysis
Parameters: species or system Hepatitis C virus subtype 1b
Readout type: IC50 (nM)
# unit: nM | format: bare number

INSERT INTO assay_data (given_smiles, readout_type, obs_value) VALUES
  ('CC(=O)c1ccc(F)c(Cn2c(C(=O)O)c(-c3ccc[nH]c3=O)c3c4occc4c(F)cc32)c1', 'IC50', 20),
  ('O=C(O)c1ccc(F)c(Cn2c(C(=O)O)c(-c3ccc[nH]c3=O)c3c4occc4c(F)cc32)c1', 'IC50', 5),
  ('O=C(O)c1c(-c2ccc[nH]c2=O)c2c3occc3c(F)cc2n1Cc1cc2[nH]c(=O)[nH]c2cc1F', 'IC50', 7);

Memo: CCc1ccc2c(c1)c(-c1ccc[nH]c1=O)c(C(=O)NS(=O)(=O)C1CC1)n2Cc1cc(F)ccc1F , reported IC50: 3

Memo: NC(=O)c1ccc(F)c(Cn2c(C(=O)O)c(-c3ccc[nH]c3=O)c3c4occc4c(F)cc32)c1 , reported IC50: 4

Memo: Cc1ccc2c(c1)c(-c1ccc[nH]c1=O)c(C(=O)NS(=O)(=O)C1CC1)n2Cc1cc(C(N)=O)ccc1F , reported IC50: 4

====

Test: AUC (0 to 24 hrs) in dog at 3 mg/kg, po
Format: ADME, organism-based, Canis lupus familiaris
Parameters: time < 24 hr, dose 3 mg/kg, route oral
Details: plasma
Readout type: AUC(0-t) at 24 h (µM·h)
# unit: µM·h | format: bare number

Memo: O=C(O)c1c(-c2ccc[nH]c2=O)c2c3occc3c(F)cc2n1Cc1cc2c(=O)[nH]cnc2cc1F , reported AUC(0-t) at 24 h: 0.4

====

Test: Clearance in iv dosed rat
Assay type: ADME, organism-based
Conditions: in vivo
Readout type: clearance (mL/min/kg)
# unit: mL/min/kg | format: bare number

Memo: O=C(O)c1c(-c2ccc[nH]c2=O)c2c3occc3c(F)cc2n1Cc1cc2c(=O)[nH]cnc2cc1F , reported clearance: 0.2

====

Species on record: Rattus norvegicus
Assay: Cmax in rat assessed as 4-Fluoro-6-((7-fluoro-4-oxo-3,4-dihydroquinazolin-6-yl)methyl)-8-(2-oxo-1,2-dihydropyridin-3-yl)-6H-furo[2,3-e]indole-7-carboxylic acid
Assay type: ADME, organism-based
Settings: in vivo
Readout type: Cmax (nM)
# unit: nM | format: bare number

Memo: CN(C)CCOC(=O)c1c(-c2ccc[nH]c2=O)c2c3occc3c(F)cc2n1Cc1cc2c(=O)[nH]cnc2cc1F.Cl , reported Cmax: 2100

====

Assay: Inhibition of HCV genotype 1b C-terminal polyhistidine-tagged NS5B Cdelta21 RdRp expressed in Escherichia coli using DCoH75 as template assessed as incorporation of [33P]-CTP in polynucleotide sequence after 2 hrs by scintillation counting analysis
Parameters: species or system Hepatitis C virus subtype 1b
Readout type: log10 of IC50 (log10 of the value in nM)
All values: log10 IC50 [nM].

INSERT INTO assay_data (given_smiles, readout_type, obs_value) VALUES
  ('CCc1ccc2c(c1)c(-c1ccc[nH]c1=O)c(C(=O)NS(=O)(=O)C1CC1)n2Cc1cc(O)ccc1F', 'log10 of IC50', 0.70),
  ('CCc1ccc2c(c1)c(-c1ccc[nH]c1=O)c(C(=O)NS(=O)(=O)C1CC1)n2Cc1cc(S(C)(=O)=O)ccc1F', 'log10 of IC50', 0.90);

Memo: CCc1ccc2c(c1)c(-c1ccc[nH]c1=O)c(C(=O)NS(=O)(=O)C1CC1)n2Cc1cc(C(N)=O)ccc1F , reported log10 of IC50: 1.08

Memo: CN(C)CCCOC(=O)c1c(-c2ccc[nH]c2=O)c2c3occc3c(F)cc2n1Cc1cc2c(=O)[nH]cnc2cc1F , reported log10 of IC50: 2.04

Memo: CCc1ccc2c(c1)c(-c1ccc[nH]c1=O)c(C(=O)NS(=O)(=O)C1CC1)n2Cc1cc(S(N)(=O)=O)ccc1F , reported log10 of IC50: 0.70

Memo: CC(C)(C)C(=O)OCn1cnc2cc(F)c(Cn3c(C(=O)O)c(-c4ccc[nH]c4=O)c4c5occc5c(F)cc43)cc2c1=O , reported log10 of IC50: 1.11

Memo: NC(=O)c1ccc(F)c(Cn2c(C(=O)NS(=O)(=O)C3CC3)c(-c3ccc[nH]c3=O)c3cc(C(F)(F)F)ccc32)c1 , reported log10 of IC50: 0.78

====

Assay: Oral bioavailability in monkey
Assay type: ADME, organism-based, Macaca mulatta
Conditions: rhesus monkey, in vivo
Readout type: bioavailability (%)
# unit: % | format: bare number

Memo: O=C(O)c1c(-c2ccc[nH]c2=O)c2c3occc3c(F)cc2n1Cc1cc2c(=O)[nH]cnc2cc1F , reported bioavailability: 5

====

Experiment: Half life in dog at 1 mg/kg, iv
Assay type: ADME, organism-based, Canis lupus familiaris
Set-up: dose 1 mg/kg, route intravenous
Conditions: in vivo
Readout type: half-life (h)
# unit: h | format: bare number

Memo: O=C(O)c1c(-c2ccc[nH]c2=O)c2c3occc3c(F)cc2n1Cc1cc2c(=O)[nH]cnc2cc1F , reported half-life: 3.2

====

Test: Clearance in iv dosed dog
Format: ADME, organism-based, Canis lupus familiaris
Conditions: in vivo
Readout type: clearance (mL/min/kg)
# unit: mL/min/kg | format: bare number

Memo: O=C(O)c1c(-c2ccc[nH]c2=O)c2c3occc3c(F)cc2n1Cc1cc2c(=O)[nH]cnc2cc1F , reported clearance: 11

====

Species: Canis familiaris
Assay: Cmax in dog assessed as 4-Fluoro-6-((7-fluoro-4-oxo-3,4-dihydroquinazolin-6-yl)methyl)-8-(2-oxo-1,2-dihydropyridin-3-yl)-6H-furo[2,3-e]indole-7-carboxylic acid
Assay type: ADME, organism-based, Canis lupus familiaris
Conditions: in vivo
Readout type: Cmax (nM)
# unit: nM | format: bare number

Memo: CN(C)CCOC(=O)c1c(-c2ccc[nH]c2=O)c2c3occc3c(F)cc2n1Cc1cc2c(=O)[nH]cnc2cc1F.Cl , reported Cmax: 800

Source: ChEMBL document CHEMBL3124829
